I'd be grateful if you could share measured pKi for these entries.
Target: cloned human dopamine D3 receptors (Homo sapiens, UniProt P35462)
Construct: expressed in transfected cells; membrane homogenate
Sequence (P35462 whole entry): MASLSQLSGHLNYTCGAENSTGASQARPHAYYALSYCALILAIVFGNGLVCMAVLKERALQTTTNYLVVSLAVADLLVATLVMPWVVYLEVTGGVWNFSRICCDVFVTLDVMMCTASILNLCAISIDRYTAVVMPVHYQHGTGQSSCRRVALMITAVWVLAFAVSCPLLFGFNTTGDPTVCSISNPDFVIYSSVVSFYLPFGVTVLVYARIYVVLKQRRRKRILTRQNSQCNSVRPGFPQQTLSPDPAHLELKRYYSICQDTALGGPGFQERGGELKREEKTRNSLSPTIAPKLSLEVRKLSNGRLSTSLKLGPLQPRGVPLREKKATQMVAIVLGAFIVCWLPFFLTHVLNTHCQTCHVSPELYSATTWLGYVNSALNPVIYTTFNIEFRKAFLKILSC
Assay: [N-Methyl-3H]Spiroperidol binding to cloned human dopamine D3 receptors (Protocol 1)
Conditions: read-out: D3K1
// scale note: pKi = -log10(conc_M); give the bare number

State its pKi for this compound: O=C(NCCCCN1CCN(c2c(Cl)sc3cc(F)ccc23)CC1)c1cc2ccccc2s1 [compound 815064] 8.72

State its pKi for this compound: O=C(NC/C=C/CN1CCN(c2csc3cc(C(F)(F)F)ccc23)CC1)c1cc2ccccc2s1 [compound 827728] 7.80

State its pKi for this compound: COc1ccc(C(=O)N[C@@H](CO)CCCN2CCN(c3csc4cc(C(F)(F)F)ccc34)CC2)cc1OC [compound 815665] 6.79

State its pKi for this compound: COc1cccc(C(=O)NC/C=C\CN2CCN(c3csc4cc(C(F)(F)F)ccc34)CC2)c1 [compound 826344] 7.54

---

Target: cloned human dopamine D3 receptors (Homo sapiens)
Construct: expressed in transfected cells; membrane homogenate
Experiment: [N-Methyl-3H]Spiroperidol binding to cloned human dopamine D3 receptors (Protocol 1)
Conditions: read-out: D3K1
Source text: [N-Methyl-^3H]Spiroperidol Binding to Cloned Human Dopamine D3 Receptors This assay measures the in vitro activity of compounds on cloned human dopamine (D3) receptors and predicts the direct dopamine-blocking properties of putative neuropsychiatric agents at human dopamine D3 receptors. The D3 gene was isolated from a human striatal cDNA library (Stratagene). The gene was sequenced and sub-cloned into the expression vector RC/RSV (Invitrogen). […]
I'd be grateful if you could share measured Ki for these entries.
Unit µM implied. Number only.

Determine reported Ki for O=C(N[C@@H](CO)CCCN1CCN(c2csc3cc(C(F)(F)F)ccc23)CC1)c1cc2ccccc2o1 [compound 815677] ; test system: cloned human dopamine D3 receptors (Homo sapiens). 0.297

Determine reported Ki for CC1(C)C(CNC(=O)c2ccc3ccccc3c2)C1CN1CCN(c2csc3cc(C(F)(F)F)ccc23)CC1 (centres unmarked) [compound 826277] ; test system: cloned human dopamine D3 receptors (Homo sapiens). 0.0203

Determine reported Ki for O=C(N[C@H](CO)CCCN1CCN(c2csc3cc(C(F)(F)F)ccc23)CC1)c1ccco1 [compound 815696] ; test system: cloned human dopamine D3 receptors (Homo sapiens). 0.871

Determine reported Ki for O=C(NCCCCCN1CCN(c2csc3cc(C(F)(F)F)ccc23)CC1)c1cccc(F)c1 [compound 826772] ; test system: cloned human dopamine D3 receptors (Homo sapiens). 0.0078

Determine reported Ki for N#Cc1cccc(C(=O)NC/C=C\CN2CCN(c3csc4cc(C(F)(F)F)ccc34)CC2)c1 [compound 826343] ; test system: cloned human dopamine D3 receptors (Homo sapiens). 0.053

Determine reported Ki for O=C(COc1ccccc1)NC/C=C\CN1CCN(c2csc3cc(C(F)(F)F)ccc23)CC1 [compound 826347] ; test system: cloned human dopamine D3 receptors (Homo sapiens). 0.067

Determine reported Ki for O=C(NC/C=C\CN1CCN(c2csc3cc(C(F)(F)F)ccc23)CC1)c1ccc(OC(F)(F)F)cc1 [compound 826348] ; test system: cloned human dopamine D3 receptors (Homo sapiens). 0.061

Determine reported Ki for CCCCOc1ccc(C(=O)NCCCCN2CCN(c3csc4cc(C(F)(F)F)ccc34)CC2)cc1 [compound 815545] ; test system: cloned human dopamine D3 receptors (Homo sapiens). 0.0386

Determine reported Ki for COc1ccccc1C(=O)NCCCCN1CCN(c2c(Cl)sc3cc(F)ccc23)CC1 [compound 815066] ; test system: cloned human dopamine D3 receptors (Homo sapiens). 0.0287

Determine reported Ki for CCCCCOc1ccc(C(=O)NCCCCN2CCN(c3csc4cc(C(F)(F)F)ccc34)CC2)cc1 [compound 815552] ; test system: cloned human dopamine D3 receptors (Homo sapiens). 0.14

Determine reported Ki for O=C(NCCCCN1CCN(c2c(Cl)sc3cc(C(F)(F)F)ccc23)CC1)c1c(F)cccc1F [compound 815577] ; test system: cloned human dopamine D3 receptors (Homo sapiens). 0.095
